The entries below are paired with their reported IC50.
- SYSTEM NAME: 5α-Reductase of Rat Liver Microsomes (Rattus norvegicus, UniProt P24008)
- Sequence (P24008 whole entry): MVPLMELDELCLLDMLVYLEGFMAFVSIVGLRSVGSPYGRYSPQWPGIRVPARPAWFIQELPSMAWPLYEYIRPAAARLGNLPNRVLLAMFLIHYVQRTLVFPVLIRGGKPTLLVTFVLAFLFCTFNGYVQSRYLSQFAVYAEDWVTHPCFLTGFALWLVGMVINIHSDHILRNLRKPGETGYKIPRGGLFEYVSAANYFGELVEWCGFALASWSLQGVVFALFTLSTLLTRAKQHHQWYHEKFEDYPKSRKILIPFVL
- PROTOCOL NOTES: biochemical
ASSAY ENDPOINT: IC50 (µM)

[
  {
    "COMPOUND": "CCCCCCCC/C=C\\CCCCCCCC(=O)O",
    "ASSAY ENDPOINT": "IC50",
    "CMP": "=",
    "MEASURED NUMBER": 128
  },
  {
    "COMPOUND": "CCCCC/C=C\\C/C=C\\C/C=C\\CCCCCCC(=O)O [8,11,14-cis-Eicosatrienoic Acid, 8,11,14-eicosatrienoic acid]",
    "ASSAY ENDPOINT": "IC50",
    "CMP": "=",
    "MEASURED NUMBER": 15
  },
  {
    "COMPOUND": "CCCCC/C=C\\CCCCCCCCCCC(=O)O",
    "ASSAY ENDPOINT": "IC50",
    "CMP": ">",
    "MEASURED NUMBER": 200
  },
  {
    "COMPOUND": "CCCCCCCC/C=C\\CCCCCCCCC(=O)O [10-cis-Nonadecenoic Acid, 10-nonadecenoic acid]",
    "ASSAY ENDPOINT": "IC50",
    "CMP": "=",
    "MEASURED NUMBER": 130
  },
  {
    "COMPOUND": "CC/C=C\\C/C=C\\C/C=C\\C/C=C\\CCCCC(=O)O",
    "ASSAY ENDPOINT": "IC50",
    "CMP": "=",
    "MEASURED NUMBER": 57
  },
  {
    "COMPOUND": "CCCCC/C=C\\C/C=C\\C/C=C\\CCCCC(=O)OCC(COC(=O)CCCC/C=C\\C/C=C\\C/C=C\\CCCCC)OC(=O)CCCC/C=C\\C/C=C\\C/C=C\\CCCCC",
    "ASSAY ENDPOINT": "IC50",
    "CMP": ">",
    "MEASURED NUMBER": 200
  },
  {
    "COMPOUND": "CCCCC/C=C\\C/C=C\\CCCCCCCCCC(=O)OC [11,14-cis-Eicosadienoate, methyl 11,14 eicosadienoate]",
    "ASSAY ENDPOINT": "IC50",
    "CMP": ">",
    "MEASURED NUMBER": 200
  }
]

====

- SYSTEM NAME: human 5α-reductase isozyme type 1 (Homo sapiens, UniProt P18405)
- Construct: expressed in transfected cells; host or cells: Rat-1A cells infected with pMV7 retrovirus; microsomes of these cells
- Sequence (P18405 whole entry): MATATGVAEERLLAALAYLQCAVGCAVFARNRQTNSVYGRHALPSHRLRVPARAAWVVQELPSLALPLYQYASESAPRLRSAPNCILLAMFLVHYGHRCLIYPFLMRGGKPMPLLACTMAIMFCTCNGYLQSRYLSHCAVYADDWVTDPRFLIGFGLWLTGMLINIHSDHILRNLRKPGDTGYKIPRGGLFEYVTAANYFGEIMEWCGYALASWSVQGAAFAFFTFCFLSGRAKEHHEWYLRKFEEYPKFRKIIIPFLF
- PROTOCOL NOTES: [3H]4-MA binding, human type 1 isozyme expressed in Rat-1A cells
- STUDY CONDITIONS: read-out: % Inhibition of [^3 H]4-MA binding
ASSAY ENDPOINT: inhibition at 100 µM (%)

[
  {
    "MOLECULE": "O=C(O[C@@H]1Cc2c(O)cc(O)cc2O[C@@H]1c1cc(O)c(O)c(O)c1)c1cc(O)c(O)c(O)c1 [EGCG, (-)Epigallocatechin-3-gallate]",
    "MEASURED NUMBER": 86
  },
  {
    "MOLECULE": "O=C(O[C@@H]1Cc2c(O)cc(O)cc2O[C@@H]1c1ccc(O)c(O)c1)c1cc(O)c(O)c(O)c1 [ECG, (-)Epicatechin-3-gallate]",
    "MEASURED NUMBER": 79
  },
  {
    "MOLECULE": "CCCCC/C=C\\C/C=C\\C/C=C\\CCCCC(=O)O [γ-Linolenic acid, γ-linolenic acid]",
    "MEASURED NUMBER": 85
  },
  {
    "MOLECULE": "Oc1cc(O)c2c(c1)O[C@H](c1cc(O)c(O)c(O)c1)[C@H](O)C2 [EGC, (-)Epigallocatechin]",
    "MEASURED NUMBER": 23
  }
]

====

- SYSTEM NAME: 5α-Reductase of Rat Liver Microsomes (Rattus norvegicus, UniProt P24008)
- PROTOCOL NOTES: biochemical
- STUDY CONDITIONS: read-out: % Inhibition of [^3 H]4-MA binding

[
  {
    "MOLECULE": "CCCCCC/C=C\\CCCCCCCC(=O)OC [Palmitoleic acid methyl ester]",
    "inhibition at 40 µM": "< 10%"
  },
  {
    "MOLECULE": "CCCC/C=C\\CCCCCCCC(=O)O [Myristoleic acid]",
    "inhibition at 40 µM": "25%"
  },
  {
    "MOLECULE": "CC/C=C\\C/C=C\\C/C=C\\CCCCCCCCO [α-Linolenyl alcohol]",
    "inhibition at 40 µM": "< 10%"
  },
  {
    "MOLECULE": "CCCCC/C=C\\C/C=C\\CCCCCCCC(=O)OC [Linoleic acid methyl ester]",
    "inhibition at 40 µM": "< 10%"
  },
  {
    "MOLECULE": "CCCCC/C=C\\C/C=C\\CCCCCCCCO [Linoleyl alcohol]",
    "inhibition at 40 µM": "< 10%"
  },
  {
    "MOLECULE": "CCCCCCCC/C=C\\CCCCCCCC(=O)OC [Oleic acid methyl ester]",
    "inhibition at 40 µM": "< 10%"
  },
  {
    "MOLECULE": "CCCCCCCC/C=C\\CCCCCCCCO [Oleyl alcohol]",
    "inhibition at 40 µM": "< 10%"
  },
  {
    "MOLECULE": "C=CCCCCCCCCC(=O)O [Undecylenic acid]",
    "inhibition at 40 µM": "< 10%"
  },
  {
    "MOLECULE": "CCCCCC/C=C\\CCCCCCCCO [Palmitoleyl alcohol]",
    "inhibition at 40 µM": "< 10%"
  },
  {
    "MOLECULE": "CC/C=C\\C/C=C\\C/C=C\\CCCCCCCC(=O)OC [α-Linolenic acid methyl ester]",
    "inhibition at 40 µM": "< 10%"
  },
  {
    "MOLECULE": "CCCCC/C=C\\C/C=C\\C/C=C\\CCCCC(=O)O [γ-Linolenic acid, γ-linolenic acid]",
    "inhibition at 40 µM": "83%"
  }
]

====

- SYSTEM NAME: 5α-Reductase of Rat Liver Microsomes (Rattus norvegicus)
- PROTOCOL NOTES: biochemical
- STUDY CONDITIONS: read-out: % Inhibition of [^3 H]4-MA binding, Table 2, 40 μM
Quick reference for inhibition at 40 µM among some compounds

[
  {
    "COMPOUND": "CC/C=C\\C/C=C\\C/C=C\\CCCCCCCCCC(=O)Cl [11,14,17-cis-Eicosatrienoyl Chloride, 11,14,17-eicosatrienoyl chloride]",
    "SYSTEM NAME": "5α-Reductase of Rat Liver Microsomes (Rattus norvegicus)",
    "CMP": "<",
    "inhibition at 40 µM, %": 10
  },
  {
    "COMPOUND": "CCCCC/C=C\\C/C=C\\C/C=C\\CCCCCOC(C)=O [γ-Linolenyl Acetate, γ-linolenyl acetate]",
    "SYSTEM NAME": "5α-Reductase of Rat Liver Microsomes (Rattus norvegicus)",
    "CMP": "<",
    "inhibition at 40 µM, %": 10
  },
  {
    "COMPOUND": "CCCCC/C=C\\C/C=C\\C/C=C\\CCCCCCC(=O)O [8,11,14-cis-Eicosatrienoic Acid, 8,11,14-eicosatrienoic acid]",
    "SYSTEM NAME": "5α-Reductase of Rat Liver Microsomes (Rattus norvegicus)",
    "CMP": "=",
    "inhibition at 40 µM, %": 92
  },
  {
    "COMPOUND": "CCCCC/C=C/C/C=C/CCCCCCCC(=O)O",
    "SYSTEM NAME": "5α-Reductase of Rat Liver Microsomes (Rattus norvegicus)",
    "CMP": "<",
    "inhibition at 40 µM, %": 10
  },
  {
    "COMPOUND": "CCCCC/C=C\\C/C=C\\C/C=C\\CCCCC(=O)Cl [γ-Linolenoyl Chloride, γ-linolenoyl chloride]",
    "SYSTEM NAME": "5α-Reductase of Rat Liver Microsomes (Rattus norvegicus)",
    "CMP": "<",
    "inhibition at 40 µM, %": 10
  },
  {
    "COMPOUND": "CC/C=C\\C/C=C\\C/C=C\\C/C=C\\C/C=C\\C/C=C\\CCC(=O)O [Docosahexaenoic acid, cis-4,7,10,13,16,19-docosahexaenoic acid]",
    "SYSTEM NAME": "5α-Reductase of Rat Liver Microsomes (Rattus norvegicus)",
    "CMP": "=",
    "inhibition at 40 µM, %": 49
  },
  {
    "COMPOUND": "CCCCCCCC/C=C\\CCCCCCCCCC(=O)O",
    "SYSTEM NAME": "5α-Reductase of Rat Liver Microsomes (Rattus norvegicus)",
    "CMP": "=",
    "inhibition at 40 µM, %": 15
  }
]
